assay.overview: Visual cytotoxicity in stationary uninfected HFF cells
Assay type: cell-based
measurement.conditions: human; Towne/HFF system; visual observation of stationary uninfected HFF cells; read-out: TC50 (median toxic concentration)
experimental.endpoint: CC50 (µg/mL)
Give the quantity in µg/mL, number only.

[[record]]
record_smiles = "CCCCCn1c(=O)sc2c(=O)[nH]c(N)nc21"
scale_unit = "µg/mL"
measured_result = 100

[[record]]
record_smiles = "CC(C)=CCn1c(=O)sc2c(=O)[nH]c(N)nc21"
scale_unit = "µg/mL"
measured_result = 100


Q: # query: CC50 of entry "CCCCC(CCCC)n1c(=O)sc2c(=O)[nH]c(N)nc21"
Result: 11.1

---

System: Human cytomegalovirus (HCMV) strain Towne
assay.overview: HCMV plaque reduction (cytopathic effect) assay, strain Towne in HFF cells
Assay type: cell-based
measurement.conditions: Human betaherpesvirus 5, HFF, read-out: IC50 (median inhibitory concentration)
Rule: IC50 below 10 µg/mL gives MET, anything at or above gives NOT MET.

Some solved entries appear below for comparison.
[[record]]
compound = "CCC=CCn1c(=O)sc2c(=O)[nH]c(N)nc21"
class_label = "MET"

[[record]]
compound = "Nc1nc2c(ncn2COC(CO)CO)c(=O)[nH]1 [Ganciclovir, reference compound]"
class_label = "MET"

[[record]]
compound = "CCCCC(CCCC)n1c(=O)sc2c(=O)[nH]c(N)nc21"
class_label = "MET"

[[record]]
compound = "CCCCCn1c(=O)sc2c(=O)[nH]c(N)nc21"
class_label = "NOT MET"

[[record]]
compound = "C=CCCCn1c(=O)sc2c(=O)[nH]c(N)nc21"
class_label = "NOT MET"


Q: For this compound, is IC50 lower than 10 µg/mL? "CC(C)=CCn1c(=O)sc2c(=O)[nH]c(N)nc21"
Result: MET

---

assay.overview: Cytotoxicity (inhibition of cell growth) in actively dividing Vero cells, CellTiter 96 assay
Type: cell-based
measurement.conditions: african green monkey, 4 day incubation, read-out: Cytotoxicity (TC50)
Listed compounds paired with reported CC50 at 96 h

Solved entries (count: 4):
[[record]]
record_smiles = "CCC(CC)n1c(=O)sc2c(=O)[nH]c(N)nc21"
measured_result = "56 µg/mL"

[[record]]
record_smiles = "CCCCCCn1c(=O)sc2c(=O)[nH]c(N)nc21"
measured_result = "> 1 µg/mL"

[[record]]
record_smiles = "C=CCCCn1c(=O)sc2c(=O)[nH]c(N)nc21"
measured_result = "45 µg/mL"

[[record]]
record_smiles = "CCCCCn1c(=O)sc2c(=O)[nH]c(N)nc21"
measured_result = "> 5 µg/mL"


Let us move to another entry and its CC50 at 96 h.
Q: # query: CC50 at 96 h of entry "CCCCC(CCCC)n1c(=O)sc2c(=O)[nH]c(N)nc21"
Result: > 2.5 µg/mL

---

Listed molecules paired with reported CC50 at 96 h
assay.overview: Cytotoxicity (inhibition of cell growth) in actively dividing Vero cells, CellTiter 96 assay
Type: cell-based
measurement.conditions: african green monkey, 4 day incubation, read-out: Cytotoxicity (TC50)

Solved entries (count: 2):
[[record]]
molecule = "CC(C)=CCn1c(=O)sc2c(=O)[nH]c(N)nc21"
experimental_endpoint = "CC50 at 96 h"
measured_result = "20 µg/mL"

[[record]]
molecule = "Nc1nc2c(ncn2COCCO)c(=O)[nH]1 [acyclovir, 9-(2-hydroxyethoxymethyl)guanine, reference compound]"
experimental_endpoint = "CC50 at 96 h"
measured_result = "> 100 µg/mL"


Q: # query: CC50 at 96 h of entry "CCC=CCn1c(=O)sc2c(=O)[nH]c(N)nc21"
Result: > 20 µg/mL
